Origin of measurements: the domain aggregation screens of Martell et al. (2025)

experiment: soluble fraction after stress (log2 fold change); higher = more stays soluble; pooled small domains, quantitative proteomics; conditions: stress: pH 4
result_type: soluble fraction (log2)
The reply should be a number, written without any unit.

HMISQATMEKMGLTNRERQLVDFIVRGASNQEISEKMFISINTVKIHVSNIFRKAGVRSRTELMDKYP ... -0.693
HMANLDSLIKKVGQYAKDKQSISVDGIKKDLSIDKDMVKEALAELLKIGVVDKPDEAGQYKVIM ... 0.0802
HMTKQDYLTALQQELNKNAVADAEDIVSEYEQHFQFKLADGFTEEEIAAKLGAPAQIALQFAG ... -1.64
HMSVPQENKDLLGRSIEIFYAGKTVEAKVTDTGALAPLGRALDLSPATWRAFGASSISDWGVRGVFYRFVA ... -0.0838
HMARRTPPPTVSELNALLRVAAPHIQRVILLGIYTGARIGPSELFSLKWDDVDLTRGVIGIRL ... -0.39

Requested read-out: soluble fraction (log2). Entry: `HMAKNIEVPNLVGSTISVARNDLKQLGLHVIVRDSVWSEDKKIDTILEQFPEPGKKLKPEGVVQVVVSI`
0.0706

Requested read-out: soluble fraction (log2). Entry: `HMLSAEAAAARTAISTLSEDQQRVLGLSIQRGLVHEQIARATGLPLGTVKTHIRRGLIKVREALEAQAAG`
0.0049

Requested read-out: soluble fraction (log2). Entry: `HMSSWAEGLTERERHTLMWITKGLSNKLIARELGISDSTVKVYVKNLLRKLNVNSRLELAAWVHTHPL`
-0.246

* * *

experiment: soluble fraction after stress (log2 fold change); higher = more stays soluble; pooled small domains, quantitative proteomics; conditions: stress: pH 4
result_type: soluble fraction (log2)
The reply should be a number, written without any unit.

HMDAIIVPSVLKMKPFEAEEKLSALGLRMKINDTVYIDNMKPGVIVEQSPTAEEDVKTDRVIYVIVNA ... -0.139
HMTNQEFNAAFKPFLDYFPTTEMTKEKINIYYLALSDLSKEQLGSAFISMVKNRVYKNFPQVAEIRQYATN ... -0.456
HMGEILYSGVLKGGDGPEATKLALEKFLGEANTQVAGRIGVQPETQVIWLSREAVDSAASTLSQHKGNMYV ... -0.0574
HMQEEELYPRLEEVINQHRGKGEDLIMVLHKAQNLFGYLPRRAQEMVAEGLNVSLNEVYGVITFYNFFST ... -0.342
HMQLSMLPYGFARRHGVLLVEQDEQPTLIHRAGITATVIAEVQRVAGQIDAWRLVDDARFDQQLAEVYRD ... -1.41
HMSGTFIGGELVKPGEPLTPMQRAAITMGLQMGNTYSPEIMEKYNNAGGSPSKEEFENYQKNKS ... 0.22
HMDAAEVEATARAMLRRSALNLLAQREQTAFELKQKLSRRFPEQAALLDEVIERLQEQGLQDDTR ... -0.527

For the next question, use this sequence.
Requested read-out: soluble fraction (log2). Entry: `HMRFDADELQKAYDLFDADENTPFKTIKQAYYALARRHHPDKNGDQEYFKVINNAFQLIQEHRRRRDN`
-0.412

* * *

assay: soluble fraction after stress (log2 fold change); higher = more stays soluble; pooled small domains, quantitative proteomics; conditions: stress: pH 4
result_type: soluble fraction (log2)

# count of solved cases: 5
HMDPLGHVIKKKRLQLGMTLRDLAAKAGVHHATIDRIETDQFKVVDPSTLVKIAEALHLDQLYLLSLN ... -0.532
HMTGRVKWYDATKGFGFVTSDEGGDVFLPKGALPAGVADLKTGQRIEFGVVDSRKGAQALGVK ... -0.22
HMRGRFGNAAPARNLGDHPQGGAINVKAGRYGPYVSWGKVNATLPKDSDPEKVTLEEAVALIAAKQSGQG ... 0.218
HMHEHWDGSGFPKHLRGANIPLGARVIAVADTYDSITSSRAYRAGSTHEAAEREMRRVSGTQLDPE ... 0.0226
HMDAAANTLRILKALSESPMSADRLAELLMEEGSGRNPRTIRRYIRALREAGFGVEHREGRYVL ... -0.483

Requested read-out: soluble fraction (log2). Entry: `HMSQVSTKYINVSSAYVRSKPSKDGEIVTSLIKNTDVTVTGENGDWYKIKFNNYEGYIFKELLSDSKLEE`
-0.35

Requested read-out: soluble fraction (log2). Entry: `HMQPDFLDAKASLALLGVRPQTLYAYVSRGAIRSVPQPGTKAHLYSRSDIERVMARAAARAG`
-0.019

Requested read-out: soluble fraction (log2). Entry: `HMKAGRNTLARQMAILEVLQKDGRALVDDLAARFETTPQTIRKDLSALAEVNQISRFHGGAALVG`
-0.279

Requested read-out: soluble fraction (log2). Entry: `HMLKHSKQRDAIEQFLATRYDHPTAETVYMNLREEYPKLSLATVYRNLSLLAELGNIQKIPTGNGPDRFDG`
0.22

Requested read-out: soluble fraction (log2). Entry: `HMTSDADSLRDKTGYVAEQVTSKGGKVNLYDGGFDSLYSARSTGETISTGTEIRVVDPGGGNMLVVEPV`
-0.356

Requested read-out: soluble fraction (log2). Entry: `HMESGLPLPRFVSLGADEVNLRTGPGLRYPVAWVFVRKALPVEIVAEFEQWRRVRDFEGAEGWVHKAML`
-0.527

Requested read-out: soluble fraction (log2). Entry: `HMDEEVLVVQEGGERLDVFVAANAEGITRSFVQNLIKKGDVTVDGAPRKANYRLRSGQVVRFSLPEP`
0.293
